System: SW-620 colon
measurementNotes: NCI tumour cell line growth inhibition, 48 h; in the data active = GI50 below about 0.43 µM; inactive = the rest
Labels: T for active, F for inactive

> print(dat)
                                    compound  answerlabel
 1  O=C1NC(=S)S/C1=C(/C=C(\CC(=O)c1ccccc1)c1ccc(Cl)cc1)c1ccccc1            F
 2  CC[O-].CC[O-].O=S(=O)([O-])c1ccc([O-])c2ncccc12.O=S(=O)([O-])c1ccc([O-])c2ncccc12.[Ti+4]            F
 3              COc1ccccc1/C=C/C(=O)c1ccccc1            F
 4  C=C1C(=O)O[C@H]2[C@H]1CC/C(COC(=O)c1cc3cc(Cl)ccc3[nH]1)=C\CC[C@@]1(C)O[C@@H]21            F
 5  Cc1cc(Cl)ccc1Nc1nc(C(F)(F)F)ccc1C(=O)N/N=C/c1ccc([N+](=O)[O-])cc1            F
 6  CC[PH+](CC)CC.O=COC1OC([S-])C(OC=O)C(OC=O)C1OC=O.[Au+] (centres undefined)            F
 7  COc1ccc(Cn2c3c(cc(OS(=O)(=O)C(F)(F)F)c2=O)Cc2ccccc2-3)cc1            F
 8        NC(=O)c1cc2c3ccccc3ccn2c1-c1ccccc1            T
 9  Cn1c2c(c3ccc(Cl)c(Cl)c31)C(C#N)C1(CCNCC1)NC2=O (centres undefined)            F
10  CC[C@H](Nc1nc(C)nc(N)c1C#N)c1nc2cccc(NCc3ccc(C(=O)NO)cc3)c2c(=O)n1-c1ccccc1            F
11  NC(N)=NCCC1OC(=O)C2=C1c1c(O)ccc3nccc(c13)O2 (centres undefined)            F
12      Cc1ccc2nc(-c3ccc(N(C)C)c(Br)c3)cn2c1            F
13  OCCNc1ncnc2c1ncn2Cc1cccc(COc2cccc(OCc3cccc(Cn4cnc5c(NCCO)ncnc54)c3)c2)c1            F
14  COc1ccc2c(c1)/C(=C\c1c(Cl)[nH]c3ccc(OC)cc13)C(=O)N2            F
15  Cc1ccc(-c2csc(NC(=O)CN3CCN(c4cc5c(cc4F)c(=O)c(C(=O)O)cn5C4CC4)CC3)n2)cc1            F
16  Nc1ccccc1C#C/C=C\C#Cc1ccccc1[N+](=O)[O-]            F
17  COc1cc(C(=O)Nc2cc3c(cc2Oc2cc(C)cc(C)c2)C(=O)N(C)[C@@H](CC(=O)N(C)O)C(=O)N3)c(Br)c(OC)c1OC            T
18  CN(C)CCCNC(=O)c1ccc2c(c1)oc1cc3ccccc3c(=O)n12            F
19              Nc1ccccc1C#C/C=C\C#Cc1ccccc1            F
